# System: Magnaporthe grisea; anamorph: Pyricularia oryzae
# measurement.protocol: whole plant or invertebrate
# Type: in vivo
# experimental.parameters: 24 h, read-out: Disease Control PYRIOR 1 DP

| compound | pest or weed control at 100 ppm |
| --- | --- |
| COc1ccnc(C(=O)N[C@H]2COC[C@H](OCC(C)C)[C@@H](OCC(C)C)[C@H](C)OC2=O)c1OCOC(C)=O [Compound 3] | 80 to 100% |
| COc1ccnc(C(=O)N[C@H]2COC[C@H](OCC(C)C)[C@@H](OC3CCCCC3)[C@H](C)OC2=O)c1OCOC(C)=O [Compound 77] | 80 to 100% |
| CCCCO[C@H]1COC[C@H](NC(=O)c2nccc(OC)c2OCOC(C)=O)C(=O)O[C@@H](C)[C@@H]1OCCOC [Compound 54] | 0 to 80% |
| COc1ccnc(C(=O)N[C@H]2COC[C@H](Oc3ccc(F)cc3)[C@@H](Oc3ccc(F)cc3)[C@H](C)OC2=O)c1OC(C)=O [Compound 229] | 80 to 100% |
| COc1ccnc(C(=O)N[C@H]2COC[C@H](Oc3ccccc3)[C@@H](Oc3ccccc3)[C@H](C)OC2=O)c1OCOC(C)=O [Compound 84] | 80 to 100% |
| COc1ccnc(C(=O)N[C@H]2COC[C@H](OCCCc3ccccc3)[C@@H](OCCCc3ccccc3)[C@H](C)OC2=O)c1OCOC(C)=O [Compound 60] | 80 to 100% |

====

pest or weed control at 100 ppm listing for selected compounds.
# System: Puccinia triticina; synonym: Puccinia recondita f. sp. tritici
# measurement.protocol: Fungicidal activity: wheat brown rust (PUCCRT), wheat seedlings
# Format: in vivo
# experimental.parameters: 72 h; 100 ppm; 3 Day Curative; wheat; read-out: Disease Control PUCCRT 3DC

| line.notation | pest or weed control at 100 ppm |
| --- | --- |
| COc1ccnc(C(=O)N[C@H]2COC[C@H](Oc3ccc(C)cc3)[C@@H](Oc3ccc(C)cc3)[C@H](C)OC2=O)c1OCOC(C)=O | 80 to 100% |
| CCCCO[C@H]1COC[C@H](NC(=O)c2nccc(OC)c2O)C(=O)O[C@@H](C)[C@@H]1OCCC | 80 to 100% |
| CCCCCO[C@H]1[C@H](C)OC(=O)[C@@H](NC(=O)c2nccc(OC)c2OCOC(C)=O)COC[C@@H]1OCCCCC | 80 to 100% |
| CCCCO[C@H]1COC[C@H](NC(=O)c2nccc(OC)c2OCOC(C)=O)C(=O)O[C@@H](C)[C@@H]1OCCOC | 80 to 100% |
| COCCC(=O)Oc1c(OC)ccnc1C(=O)N[C@H]1COC[C@H](OCC(C)C)[C@@H](OCC(C)C)[C@H](C)OC1=O | 80 to 100% |
| COc1ccnc(C(=O)N[C@H]2COC[C@H](OCc3ccccc3)[C@@H](OCc3ccccc3)[C@@H](C)OC2=O)c1OCOC(C)=O | 0 to 80% |
| COc1ccnc(C(=O)N[C@H]2COC[C@H](OCC(C)C)[C@@H](OCC(C)C)[C@@H](COCC(C)C)OC2=O)c1O | 0 to 80% |
| COc1ccnc(C(=O)N[C@H]2COC[C@H](Oc3ccccc3)[C@@H](OC3CCCC3)[C@H](C)OC2=O)c1O | 80 to 100% |
| CCOCC(=O)OCOc1c(OC)ccnc1C(=O)N[C@H]1COC[C@H](Oc2ccc(F)cc2)[C@@H](Oc2ccc(F)cc2)[C@H](C)OC1=O | 80 to 100% |
| COc1ccnc(C(=O)N[C@@H]2COC[C@H](OCc3ccccc3)[C@@H](OCc3ccccc3)[C@@H](C)OC2=O)c1OCOC(C)=O | 0 to 80% |
| COc1ccnc(C(=O)N[C@@H]2COC[C@H](OCC(C)C)[C@@H](OCC(C)C)[C@@H](COCC(C)C)OC2=O)c1O | 0 to 80% |
| CCCCO[C@H]1COC[C@H](NC(=O)c2nccc(OC)c2O)C(=O)O[C@@H](C)[C@@H]1O | 80 to 100% |
| COc1ccnc(C(=O)N[C@H]2COC[C@H](OCc3ccccc3)[C@@H](OCc3ccccc3)[C@@H](C)OC2=O)c1O | 0 to 80% |
| CCCCO[C@H]1COC[C@H](NC(=O)c2nccc(OC)c2OCOC(C)=O)C(=O)O[C@@H](C)[C@@H]1OC(=O)c1ccccc1 | 80 to 100% |
| CC[C@@H]1OC(=O)[C@@H](NC(=O)c2nccc(OC)c2OCOC(C)=O)COC[C@H](OCC(C)C)[C@H]1OCC(C)C | 80 to 100% |
| CCCO[C@H]1COC[C@H](NC(=O)c2nccc(OC)c2OCOC(C)=O)C(=O)O[C@@H](C)[C@@H]1Oc1ccccc1 | 80 to 100% |
| COc1ccnc(C(=O)N[C@H]2COC[C@H](OC3CCCCC3)[C@@H](O)[C@H](C)OC2=O)c1O | 0 to 80% |
| CCOCC(=O)OCOc1c(OC)ccnc1C(=O)N[C@H]1COC[C@H](Oc2ccc(OC)cc2)[C@@H](Oc2ccc(OC)cc2)[C@H](C)OC1=O | 80 to 100% |
| COc1ccnc(C(=O)N[C@H]2CO[C@@H](C)[C@H](OCc3ccccc3)[C@@H](OCc3ccccc3)[C@H](C)OC2=O)c1O | 0 to 80% |
| COc1ccnc(C(=O)N[C@H]2COC[C@H](Oc3ccc(C)cc3)[C@@H](Oc3ccc(C)cc3)[C@H](C)OC2=O)c1O | 80 to 100% |
| COc1ccnc(C(=O)N[C@H]2CO[C@H](C)[C@H]3OC(C)(C)O[C@@H]3[C@@H](C)OC2=O)c1O | 0 to 80% |
| COc1ccnc(C(=O)N[C@H]2COC[C@H](Oc3ccccc3)[C@@H](OC3CCCC3)[C@H](C)OC2=O)c1OCOC(C)=O | 80 to 100% |
| COc1ccnc(C(=O)N[C@H]2COC[C@@H](OCc3ccccc3)[C@H](OCc3ccccc3)[C@H](C)OC2=O)c1OCOC(C)=O | 0 to 80% |
| CCCO[C@H]1COC[C@H](NC(=O)c2nccc(OC)c2O)C(=O)O[C@@H](C)[C@@H]1Oc1ccccc1 | 80 to 100% |
| COc1ccnc(C(=O)N[C@H]2COC[C@@H](OCc3ccccc3)[C@H](OCc3ccccc3)[C@H](C)OC2=O)c1O | 0 to 80% |
| C=CCO[C@H]1[C@H](C)OC(=O)[C@@H](NC(=O)c2nccc(OC)c2O)COC[C@@H]1OCCCC | 80 to 100% |
